Every entry's value here was drawn from ChEMBL document CHEMBL1130041.

# TESTED_SYSTEM: Sigma non-opioid intracellular receptor 1 (Homo sapiens)
# Sequence (Q99720 whole entry): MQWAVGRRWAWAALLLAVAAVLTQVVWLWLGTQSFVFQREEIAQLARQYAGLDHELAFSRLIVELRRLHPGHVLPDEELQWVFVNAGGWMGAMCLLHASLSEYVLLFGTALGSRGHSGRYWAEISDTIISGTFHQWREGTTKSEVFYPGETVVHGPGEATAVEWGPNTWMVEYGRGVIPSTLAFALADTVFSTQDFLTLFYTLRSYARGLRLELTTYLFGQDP
# ASSAY_NOTES: Receptor binding affinity against Sigma receptor
MEASUREMENT_TYPE: Ki (µM)
Dear colleague, please return just the value in µM, with no unit written.

Ask: GET /values?readout=Ki&item= `O=[N+]([O-])c1ccc(OCC2CCN(CC3CC3)CC2)cc1`
Reply: 0.013

Ask: // same read-out, input: `N#Cc1ccc(OCC2CCN(CC3CC3)CC2)cc1`
Reply: 0.01

---

# ASSAY_NOTES: In Vitro binding affinity for 5-hydroxytryptamine 2 receptor
pKi: −log10 of the molar value.
MEASUREMENT_TYPE: pKi

Ask: GET /values?readout=pKi&item= `N#Cc1ccc(OCC2CCN(CC3CC3)CC2)cc1`
Reply: < 6.70

Ask: // same read-out, input: `O=[N+]([O-])c1ccc(OCC2CCN(CC3CC3)CC2)cc1`
Reply: < 6.70

Ask: // same read-out, input: `N#Cc1ccc(OCC2CCN(Cc3ccccc3I)CC2)cc1`
Reply: < 6.00

Ask: // same read-out, input: `Ic1ccc(OCC2CCN(CC3CC3)CC2)cc1`
Reply: < 5.00

Ask: // same read-out, input: `Brc1cccc(OCC2CCN(CC3CC3)CC2)c1`
Reply: < 5.00

Ask: // same read-out, input: `N#Cc1ccc(OCC2CCN(C/C=C/I)CC2)cc1`
Reply: < 5.00

Ask: // same read-out, input: `OCCN1CCC(COc2ccc(I)cc2)CC1`
Reply: < 5.00

---

# ASSAY_NOTES: Partition coefficient (logP)
# Format: physicochemical
# MEASUREMENT_CONTEXT: octanol/water
MEASUREMENT_TYPE: logP
# print the numeric value only

Ask: GET /values?readout=logP&item= `N#Cc1ccc(OCC2CCN(Cc3ccc(F)cc3)CC2)cc1`
Reply: 3.22

Ask: // same read-out, input: `FCCCN1CCC(COc2ccc(Br)cc2)CC1`
Reply: 5.88

Ask: // same read-out, input: `N#Cc1ccc(OCC2CCN(Cc3ccccc3Br)CC2)cc1`
Reply: 4.09

Ask: // same read-out, input: `FCCN1CCC(COc2ccc(I)cc2)CC1`
Reply: 4.02

Ask: // same read-out, input: `N#Cc1cccc(CN2CCC(COc3ccc(I)cc3)CC2)c1`
Reply: 4.19

---

# ASSAY_NOTES: Ki ratio measured as Ki of sigma-2 receptor to that of sigma-1 receptor.
Note to self: Ratio under 10 means 1, ties and anything higher get -1.

Ask: # strict comparison: is reported Ratio < 10? input = `N#Cc1ccccc1CN1CCC(COc2ccc(I)cc2)CC1`
Reply: -1

Ask: // same read-out, input: `Brc1ccc(OCC2CCN(CC3CC3)CC2)cc1`
Reply: -1

Ask: // same read-out, input: `Ic1ccc(OCC2CCN(CC3CC3)CC2)cc1`
Reply: -1

Ask: // same read-out, input: `OCCN1CCC(COc2ccc(I)cc2)CC1`
Reply: -1

Ask: // same read-out, input: `FCCCN1CCC(COc2ccc(Br)cc2)CC1`
Reply: -1

Ask: // same read-out, input: `N#Cc1cccc(CN2CCC(COc3ccc(I)cc3)CC2)c1`
Reply: -1

Ask: // same read-out, input: `FCCCN1CCC(COc2c(F)c(F)c(F)c(F)c2F)CC1`
Reply: 1

Ask: // same read-out, input: `FCCN1CCC(COc2ccc(I)cc2)CC1`
Reply: -1

Ask: // same read-out, input: `Fc1cccc(CN2CCC(COc3c(F)c(F)c(F)c(F)c3F)CC2)c1`
Reply: 1

Ask: // same read-out, input: `Fc1ccc(CN2CCC(COc3c(F)c(F)c(F)c(F)c3F)CC2)cc1`
Reply: 1

Ask: // same read-out, input: `Brc1cccc(OCC2CCN(CC3CC3)CC2)c1`
Reply: -1

Ask: // same read-out, input: `N#Cc1ccc(OCC2CCN(CCF)CC2)cc1`
Reply: -1

Ask: // same read-out, input: `N#Cc1ccc(OCC2CCN(Cc3ccccc3Br)CC2)cc1`
Reply: -1

---

Provide the recorded Ki for the entries that follow.
# TESTED_SYSTEM: D(2) dopamine receptor (Homo sapiens, UniProt P14416)
# Sequence (P14416 whole entry): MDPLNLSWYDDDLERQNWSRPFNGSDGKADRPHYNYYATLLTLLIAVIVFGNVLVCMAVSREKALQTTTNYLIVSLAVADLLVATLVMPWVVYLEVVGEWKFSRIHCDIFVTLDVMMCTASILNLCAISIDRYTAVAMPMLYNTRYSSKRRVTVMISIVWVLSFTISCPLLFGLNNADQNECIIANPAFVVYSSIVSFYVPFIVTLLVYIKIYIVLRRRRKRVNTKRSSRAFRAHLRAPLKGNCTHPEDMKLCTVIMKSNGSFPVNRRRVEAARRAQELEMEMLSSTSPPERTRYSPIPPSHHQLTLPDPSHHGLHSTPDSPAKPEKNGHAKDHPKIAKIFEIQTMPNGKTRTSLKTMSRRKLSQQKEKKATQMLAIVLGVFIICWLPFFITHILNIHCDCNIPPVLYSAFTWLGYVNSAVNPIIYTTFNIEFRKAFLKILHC
# ASSAY_NOTES: In vitro binding affinity for Dopamine receptor D2

Ask: GET /values?readout=Ki&item= `Ic1ccc(OCC2CCN(CC3CC3)CC2)cc1`
Reply: > 10 µM

Ask: // same read-out, input: `FCCN1CCC(COc2ccc(I)cc2)CC1`
Reply: > 10 µM

Ask: // same read-out, input: `N#Cc1ccc(OCC2CCN(CCF)CC2)cc1`
Reply: > 10 µM

Ask: // same read-out, input: `Brc1cccc(OCC2CCN(CC3CC3)CC2)c1`
Reply: > 10 µM

Ask: // same read-out, input: `FCCCN1CCC(COc2ccc(Br)cc2)CC1`
Reply: > 10 µM

Ask: // same read-out, input: `N#Cc1ccc(OCC2CCN(CCCF)CC2)cc1`
Reply: > 10 µM

Ask: // same read-out, input: `N#Cc1ccc(OCC2CCN(Cc3ccc(F)cc3)CC2)cc1`
Reply: > 10 µM

---

# TESTED_SYSTEM: Sigma 2 receptor
# ASSAY_NOTES: Receptor binding affinity against Sigma-2 receptor from guinea pig membranes
# Design: species or system Cavia porcellus
Provide the recorded pKi for the entries that follow.
Reminder that pKi is minus the log10 of a molar concentration.

Ask: GET /values?readout=pKi&item= `O=[N+]([O-])c1ccc(OCC2CCN(Cc3ccc(F)cc3)CC2)cc1`
Reply: 8.41

Ask: // same read-out, input: `N#Cc1ccc(OCC2CCN(C/C=C/I)CC2)cc1`
Reply: 7.41
